Tested on: OVCAR-3 ovarian
runDescription: NCI-60 one-dose screen, 48 h
testContext: 10 µM unless noted
Procedure: Growth inhibition of the OVCAR-3 human tumor cell line is measured as a screen for anti-cancer activity. Cells are grown in 96 well plates and exposed to the test compound for 48 hours. Compounds are tested at a single concentration, which is 10^-5 M for most compounds. The reported endpoint is percent growth (GI% or GIPRCNT), where numbers from 0 - 100% represent growth inhibition, and numbers from -100% - 0 represent cell death. For example, a value of 40 represents 60% growth inhibition. […]
Compounds without any hit were thinned out: in the full panel of roughly 83,000, 20% have a hit. Activity calls are given as the source filed them. The calls were made as follows: active = growth percent below 10; inactive = the rest.
Hello, when you answer, please use one of the following outcomes: active, inactive

compound	targetOrTestSystem	labelValue
CCN(CC)c1ccc2c(c1)Oc1nc(N)c(C#N)c(N)c1C2Sc1ccc(F)cc1 (configuration not stated)	OVCAR-3 ovarian	active

Identify the outcome logged in this assay for the compound shown: Nc1nc(N)c2c(n1)NC(c1ccc(C(F)(F)F)cc1)CC(c1ccc(Nc3nc(NCCO)nc(N4CCOCC4)n3)cc1)=N2 (configuration not stated)
inactive

Identify the outcome logged in this assay for the compound shown: "O=C(CCn1cc[n+](CC(=O)c2ccc(-c3ccccc3)cc2)c1)Nc1cccc2cccnc12"
inactive

Identify the outcome logged in this assay for the compound shown: "Cc1ccc(NC(=O)c2ccc(CN3CCN(C)CC3)cc2)cc1Oc1ccc(-c2[nH]nc3ncnc(N)c23)cc1"
inactive

Identify the outcome logged in this assay for the compound shown: "Cc1ccc(CSc2nc(-c3ccc(Cl)cc3)c(C#N)c(N3CCNCC3)n2)cc1"
inactive

Identify the outcome logged in this assay for the compound shown: "CC1(C)[C@@H](O)CC[C@]2(C)[C@H]3CC[C@@H]4[C@H]5[C@H](C(=O)/C=C\c6ccccn6)CC[C@]5(O)CC[C@@]4(C)[C@]3(C)CC[C@@H]12"
inactive

---

Test system: T-47D breast
runDescription: NCI-60 one-dose screen, 48 h
testContext: 10 µM unless noted
Compounds without any hit were thinned out: in the full panel of roughly 83,000, 20% have a hit. The source made the active and inactive calls. The calls were made as follows: active = growth percent below 10; inactive = the rest.
Hello, when you answer, please use one of the following outcomes: class 1 (active), class 0 (inactive)

These solved cases illustrate the format of a correct answer.
compound	labelValue
CNC(=O)c1cc(-n2ccc3cc(NC(=O)Nc4ccc(N5CCOCC5)c(C(F)(F)F)c4)ccc32)ccn1	class 0
Cn1cc(CNc2nc3ccc(OC/C(=C/F)CN)cc3o2)ccc1=O	class 0
CC(=O)C1=C(C)NC(NN)=NC1c1cccc(Cl)c1 (centres undefined)	class 0
CC(=O)c1ccc(Nc2nc(SCC(C)C)nc(-c3ccc(F)cc3)c2C#N)cc1	class 0

Identify the outcome logged in this assay for the compound shown: "CCN(CC)c1cn(-c2ccc(S(N)(=O)=O)cc2)nn1"
class 0

Identify the outcome logged in this assay for the compound shown: "COc1ccccc1NC1=C(Cl)C(=O)c2nc(C)ccc2C1=O"
class 1

Identify the outcome logged in this assay for the compound shown: "O=C(CSc1nnc(-c2ccc3nc(-c4ccccc4)[nH]c3c2)o1)Nc1ccc(C(=O)/C=C/c2ccccc2)cc1"
class 0

Identify the outcome logged in this assay for the compound shown: "COc1cc(/C=C/C(=O)c2ccc(NC(=O)CSc3nnc(-c4ccc(-c5nc6ccc(Cl)cc6[nH]5)cc4)o3)cc2)cc(OC)c1OC"
class 0

Identify the outcome logged in this assay for the compound shown: "Cc1ccc(S(=O)(=O)N(CC[C@@H]2C[C@H]2c2cc3ccccc3o2)S(=O)(=O)c2ccc(C)cc2)cc1"
class 0
